Assay: AUC (0 to 8 hrs) in non-fasted mouse at 10 mg/kg, po cassette dosing by LC/MS/MS analysis
Format: ADME, organism-based
Set-up: dose 10 mg/kg, time < 8 hr, route oral
Conditions: in vivo
measured_attribute: AUC(0-t) at 8 h (ng·h/mL)
Record the value in ng·h/mL, omitting the unit from your answer.

Asked: Output measured AUC(0-t) at 8 h for this item: CCc1nc2c(nc1NC(=O)c1ccccc1)c(OCC(F)(F)F)c(C(=O)NC1CCN(C(=O)CO)CC1)n2C
Given back: 925

Asked: Output measured AUC(0-t) at 8 h for this item: CCc1cc2c(c(OCC(F)(F)F)c(C(=O)NC3CCN(C(=O)CO)CC3)n2C)c(=O)n1CC(=O)c1ccccc1 [TAK-441]
Given back: 28300

Asked: Output measured AUC(0-t) at 8 h for this item: CCc1cc2c(cc1NC(=O)c1ccccc1)c(OCC(F)(F)F)c(C(=O)NC1CCN(C(=O)CO)CC1)n2C
Given back: 1270

Asked: Output measured AUC(0-t) at 8 h for this item: CCc1nc2c(cc1NC(=O)c1ccccc1)c(OCC(F)(F)F)c(C(=O)NC1CCN(C(=O)CO)CC1)n2C
Given back: 10800

Asked: Output measured AUC(0-t) at 8 h for this item: CCc1cc2c(nc1NC(=O)c1ccccc1)c(OCC(F)(F)F)c(C(=O)NC1CCN(C(=O)CO)CC1)n2C
Given back: 984
